- system-tested: Nucleoli Translocation, AR (gene 367) (UniProt P10275)
- Sequence (P10275 whole entry, looked up): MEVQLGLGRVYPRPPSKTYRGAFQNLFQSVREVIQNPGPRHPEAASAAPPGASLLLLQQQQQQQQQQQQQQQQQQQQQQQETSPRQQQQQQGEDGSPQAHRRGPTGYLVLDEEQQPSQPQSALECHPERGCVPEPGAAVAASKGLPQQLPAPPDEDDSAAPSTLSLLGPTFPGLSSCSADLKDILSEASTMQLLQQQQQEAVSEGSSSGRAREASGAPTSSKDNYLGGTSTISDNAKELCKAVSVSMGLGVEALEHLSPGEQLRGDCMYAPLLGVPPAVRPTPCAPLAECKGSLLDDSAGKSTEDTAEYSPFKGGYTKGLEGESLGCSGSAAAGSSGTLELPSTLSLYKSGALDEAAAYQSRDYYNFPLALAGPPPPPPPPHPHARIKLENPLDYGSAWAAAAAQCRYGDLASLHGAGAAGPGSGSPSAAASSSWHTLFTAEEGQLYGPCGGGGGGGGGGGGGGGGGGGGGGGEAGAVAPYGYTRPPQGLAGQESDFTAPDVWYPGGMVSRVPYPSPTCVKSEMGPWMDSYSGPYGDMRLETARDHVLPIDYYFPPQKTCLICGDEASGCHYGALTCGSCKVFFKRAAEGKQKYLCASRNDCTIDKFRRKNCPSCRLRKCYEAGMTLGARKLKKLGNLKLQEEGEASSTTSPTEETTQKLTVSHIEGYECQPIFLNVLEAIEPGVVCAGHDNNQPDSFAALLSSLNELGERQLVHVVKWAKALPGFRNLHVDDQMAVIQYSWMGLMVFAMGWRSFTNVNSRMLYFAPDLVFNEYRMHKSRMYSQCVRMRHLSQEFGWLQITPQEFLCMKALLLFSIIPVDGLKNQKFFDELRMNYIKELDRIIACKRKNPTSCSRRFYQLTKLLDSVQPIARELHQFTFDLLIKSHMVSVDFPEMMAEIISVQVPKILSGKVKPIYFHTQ
- assay-method-text: UPITT_HCI_U2OS_AR_TIF2_Nucleoli_Antagonist: University of Pittsburgh U2OS Androgen Receptor-Transcriptional Intermediary Factor 2 (AR-TIF2) Antagonism High Content Imaging Assay for Nucleoli Translocation (AID 2283997)
Records with an inconclusive call do not appear. The source made the active and inactive calls. The calls were made as follows: active = hit-call score of the fitted dose curve at least 0.9, where 1 is the maximum; inconclusive = response in the unintended direction; inactive = score below 0.9.
The categories you may choose from are yes (1) = active, no (0) = inactive

Fill in: this test's call for CCCCCCc1ccc(N)cc1 is ___
no (0)

Fill in: this test's call for CC(=O)Nc1ccc(O)cc1 is ___
no (0)

Fill in: this test's call for CCCCCc1ccc(O)cc1 is ___
yes (1)

Fill in: this test's call for COc1cc([N+](=O)[O-])ccc1N is ___
no (0)

Fill in: this test's call for CCCCCCC(C)(C)C(=O)O is ___
no (0)

Fill in: this test's call for CN(Cc1cnc2nc(N)nc(N)c2n1)c1ccc(C(=O)N[C@@H](CCC(=O)O)C(=O)O)cc1 is ___
no (0)

Fill in: this test's call for CC(C)[C@@H]1CC[C@@H](C)C[C@H]1O is ___
no (0)

Fill in: this test's call for O=C(NCc1ncc(C(F)(F)F)cc1Cl)c1c(Cl)cccc1Cl is ___
no (0)

Fill in: this test's call for O=C(c1ccccc1)c1ccccc1 is ___
no (0)

Fill in: this test's call for Cc1cc(C(=C2C=CC(=Nc3ccc(S(=O)(=O)O)cc3)C=C2)c2ccc(Nc3ccc(S(=O)(=O)O)cc3)cc2)cc(S(=O)(=O)O)c1N is ___
no (0)

Fill in: this test's call for CN(C)CCOC(c1ccccc1)c1ccccc1 is ___
no (0)

* * *

- Read-out: CD69, CD69 (gene 969)
- assay-method-text: BSK_SAg_CD69: BioMAP Diversity Plus: SAg Assay for CD69 Biomarker Activity (AID 2283089)
- condition-notes: primary human HUVEC with PBMC; actives raise or lower the signal
Active and inactive are the calls of the source. How the source made its calls: active means hit-call score of the fitted dose curve at least 0.9, where 1 is the maximum; inactive means score below 0.9.
The categories you may choose from are active, inactive

Fill in: this test's call for O=C(O)CCC(F)(F)C(F)(F)C(F)(F)C(F)(F)C(F)(F)F is ___
inactive

Fill in: this test's call for CCCCc1oc2ccccc2c1C(=O)c1cc(I)c(OCCN(CC)CC)c(I)c1 is ___
active

Fill in: this test's call for O=C1OC2(c3ccccc31)c1cc(I)c(O)c(I)c1Oc1c2cc(I)c(O)c1I is ___
active

Fill in: this test's call for C=COC(=O)C(C)(C)CCCCCC is ___
active

Fill in: this test's call for C=CC(=O)OCCC(F)(F)C(F)(F)C(F)(F)C(F)(F)C(F)(F)C(F)(F)C(F)(F)C(F)(F)F is ___
inactive

Fill in: this test's call for CN(C)c1ccc(C(=C2C=CC(=[N+](C)C)C=C2)c2ccccc2)cc1 is ___
active

Fill in: this test's call for O=P(O)(O)CCC(F)(F)C(F)(F)C(F)(F)C(F)(F)C(F)(F)C(F)(F)C(F)(F)C(F)(F)F is ___
inactive

Fill in: this test's call for COCN(COC)c1nc(N(COC)COC)nc(N(COC)COC)n1 is ___
inactive

Fill in: this test's call for NC(=NCCCCCCN=C(N)/N=C(\N)Nc1ccc(Cl)cc1)/N=C(\N)Nc1ccc(Cl)cc1 is ___
active

Fill in: this test's call for OCCN1CN(CCO)CN(CCO)C1 is ___
active

* * *

- Read-out: Monokine induced gamma interferon (MIG), CXCL9 (gene 4283)
- assay-method-text: BSK_BE3C_MIG: BioMAP Diversity Plus: BE3C Assay for Monokine induced gamma interferon (MIG) Biomarker Activity (AID 2283035)
- condition-notes: primary human bronchial epithelial cells; actives raise or lower the signal
Active and inactive are the calls of the source. The calls were made as follows: active = hit-call score of the fitted dose curve at least 0.9, where 1 is the maximum; inactive = score below 0.9.
The categories you may choose from are y (active), n (inactive)

Fill in: this test's call for N=C(N)c1ccc(OCCCCCOc2ccc(C(=N)N)cc2)cc1 is ___
n

Fill in: this test's call for O=C1c2ccc(O)c(O)c2C(=O)c2c(O)ccc(O)c21 is ___
n

Fill in: this test's call for OCCN1CN(CCO)CN(CCO)C1 is ___
n

Fill in: this test's call for CN(CCO)S(=O)(=O)C(F)(F)C(F)(F)C(F)(F)C(F)(F)C(F)(F)C(F)(F)C(F)(F)C(F)(F)F is ___
n

Fill in: this test's call for NC(=NCCCCCCN=C(N)/N=C(\N)Nc1ccc(Cl)cc1)/N=C(\N)Nc1ccc(Cl)cc1 is ___
y

Fill in: this test's call for C=CC(=O)OCCC(F)(F)C(F)(F)C(F)(F)C(F)(F)C(F)(F)C(F)(F)C(F)(F)C(F)(F)F is ___
n

Fill in: this test's call for CC1=NN(c2ccccc2)C(=O)C1 is ___
n

Fill in: this test's call for CN(C)CCOC(c1ccccc1)c1ccccc1 is ___
n

Fill in: this test's call for CC(=O)Nc1ccc(O)cc1 is ___
n

Fill in: this test's call for CS(=O)(=O)c1ccc([C@@H](CC2CCCC2)C(=O)Nc2cnccn2)cc1Cl is ___
n

Fill in: this test's call for COc1cc(OC)nc(NC(=O)NS(=O)(=O)Nc2ccccc2C(=O)N(C)C)n1 is ___
n

Fill in: this test's call for Oc1cc2ccccc2cc1O is ___
n

Fill in: this test's call for OCC(F)(F)C(F)(F)C(F)(F)C(F)(F)C(F)(F)C(F)(F)C(F)(F)C(F)(F)C(F)(F)C(F)(F)C(F)(F)F is ___
n

Fill in: this test's call for O=P(O)(O)CCC(F)(F)C(F)(F)C(F)(F)C(F)(F)C(F)(F)C(F)(F)C(F)(F)C(F)(F)F is ___
n

Fill in: this test's call for Cc1ccc(C(=O)c2ccccc2)cc1 is ___
n

Fill in: this test's call for CC(C)(C)c1ccc(O)c(O)c1 is ___
n

Fill in: this test's call for CCCCCCCCCCCCCCCCCC[N+](C)(C)Cc1ccccc1 is ___
y

Fill in: this test's call for O=C(NO)c1ccccc1 is ___
n

Fill in: this test's call for Cc1ccc(N=Nc2c(O)ccc3ccccc23)c(C)c1 is ___
n

Fill in: this test's call for C=COC(=O)C(C)(C)CCCCCC is ___
n

Fill in: this test's call for CCCCC=O is ___
n

Fill in: this test's call for O=S(=O)(O)C(F)(F)C(F)(F)C(F)(F)C(F)(F)C(F)(F)C(F)(F)C(F)(F)C(F)(F)C(F)(F)C(F)(F)F is ___
n

Fill in: this test's call for O=C(c1ccccc1)c1ccccc1 is ___
n

Fill in: this test's call for Cc1cccc2c1ccc1ccccc12 is ___
n

* * *

- system-tested: Nuclear receptor subfamily 1 group I member 2 (Homo sapiens)
- assay-method-text: ATG_PXR_TRANS: Attagene TRANS-FACTORIAL HepG2 Assay for human Pregnane X Receptor (PXR) (AID 2283008)
- Procedure: ATG_TRANS is a cell-based, multiplexed-readout assay that uses HepG2, a human liver cell line, with measurements taken at 24 hours after chemical dosing in a 24-well plate.ATG_PXR_TRANS is one of 30 assay component(s) measured or calculated from the ATG_TRANS assay. […] This assay endpoint, ATG_PXR_TRANS, was analyzed in the positive analysis fitting direction relative to DMSO as the negative control and baseline of activity. […]
Results filed as inconclusive are left out. Active and inactive are the calls of the source. The calls were made as follows: active = hit-call score of the fitted dose curve at least 0.9, where 1 is the maximum; inconclusive = response in the unintended direction; inactive = score below 0.9.
The categories you may choose from are active, inactive

Fill in: this test's call for CC1=CC(=O)c2ccccc2C1=O is ___
active

Fill in: this test's call for COCC1CCC(CO)CC1 (stereo not drawn) is ___
inactive

Fill in: this test's call for CC(C)(O)C(=O)c1ccccc1 is ___
active

Fill in: this test's call for CCOC(C)=O is ___
inactive

Fill in: this test's call for COC(=O)C(F)(F)C(F)(F)C(F)(F)C(F)(F)C(F)(F)F is ___
inactive

Fill in: this test's call for C=CC(C)(CCC=C(C)C)OC(C)=O (stereo not drawn) is ___
active

Fill in: this test's call for CCc1cccc(CC)c1N(COC)C(=O)CS(=O)(=O)O is ___
active

Fill in: this test's call for C=COC(=O)C(C)(C)CCCCCC is ___
active

* * *

- assay-method-text: ATG_M_19_TRANS: Attagene TRANS-FACTORIAL HepG2 Assay for M19 Transcription Factor (Internal Marker) (AID 2282974)
- condition-notes: HepG2 Attagene TRANS-FACTORIAL M19 internal marker reporter
- Experimental: ATG_TRANS is a cell-based, multiplexed-readout assay that uses HepG2, a human liver cell line, with measurements taken at 24 hours after chemical dosing in a 24-well plate.ATG_M_19_TRANS is one of 30 assay component(s) measured or calculated from the ATG_TRANS assay. […] This assay endpoint, ATG_M_19_TRANS, was analyzed in the positive analysis fitting direction relative to DMSO as the negative control and baseline of activity. […]
Results filed as inconclusive are left out. The source made the active and inactive calls. How the source made its calls: active means hit-call score of the fitted dose curve at least 0.9, where 1 is the maximum; inconclusive means response in the unintended direction; inactive means score below 0.9.
measured-parameter: outcome

{"compound": "CCC(=O)C=Cc1ccc(OC)cc1", "outcome": "inactive"}
{"compound": "CC(C)(O)C(=O)c1ccccc1", "outcome": "inactive"}
{"compound": "CC(C)(c1ccc(Oc2ccc(N)cc2)cc1)c1ccc(Oc2ccc(N)cc2)cc1", "outcome": "inactive"}
{"compound": "CCN(CC)CC", "outcome": "inactive"}
{"compound": "CCCCCCCCCCCC(=O)O", "outcome": "inactive"}

For the compound shown here, C=CC(=O)OCCC(F)(F)C(F)(F)C(F)(F)C(F)(F)C(F)(F)C(F)(F)C(F)(F)C(F)(F)F , give the reported outcome.
inactive

For the compound shown here, O=S(=O)(O)c1ccc2cc(O)ccc2c1 , give the reported outcome.
inactive

For the compound shown here, CC1=NN(c2ccccc2)C(=O)C1 , give the reported outcome.
inactive

For the compound shown here, COC(=O)CC(C(C)=O)C(=O)OC (centres undefined) , give the reported outcome.
inactive

For the compound shown here, Nc1ccc(O)c(C(=O)O)c1 , give the reported outcome.
inactive

For the compound shown here, COC1=CC(=O)C[C@@H](C)[C@]12Oc1c(Cl)c(OC)cc(OC)c1C2=O , give the reported outcome.
inactive
